The following molecules are listed with their measured ED50 values.
- Test system: dogs
- methodNotes: Antitussive activity (50%-antitussive effective dose AtD50; efficiency ratio relative to codeine phosphate)
- Assay type: in vivo
- studyConditions: Canis lupus familiaris; intravenous injection; Litchfield-Wilcoxon method; read-out: AtD50 (50%-antitussive effective dose)
measurementKind: ED50 (mg/kg)

inputsmiles=Cc1ccc(C(=Nc2cccc(C)c2)NC2CCCCC2)cc1.Cl measvalue=2.48
inputsmiles=Cc1ccc(N=C(NC2CCCCC2)c2ccccc2C)cc1.Cl measvalue=3.58
inputsmiles=Cc1cccc(C(=Nc2ccccc2C)NC2CCCCC2)c1.Cl measvalue=2.98
inputsmiles=CCc1ccccc1N=C(NC1CCCCC1)c1ccccc1.Cl measvalue=4.29
inputsmiles=Cc1cccc(C)c1N=C(NC1CCCCC1)c1ccccc1.Cl measvalue=4.29
inputsmiles=Cc1cc(C)cc(N=C(NC2CCCCC2)c2ccccc2)c1.Cl measvalue=3.58
inputsmiles=COc1cccc(N=C(NC2CCCCC2)c2cccc(C)c2)c1.O=C(O)C(=O)O measvalue=5.15
inputsmiles=COc1cccc(N=C(NC2CCCCC2)c2ccc(C)cc2)c1.Cl measvalue=5.15
inputsmiles=COc1cccc(N=C(NC2CCCCC2)c2ccccc2OC)c1.Cl measvalue=2.98

Data provenance: patent US3988364A
